Target: CYP2C19 (Homo sapiens, UniProt P33261)
Sequence (P33261 whole entry, canonical isoform): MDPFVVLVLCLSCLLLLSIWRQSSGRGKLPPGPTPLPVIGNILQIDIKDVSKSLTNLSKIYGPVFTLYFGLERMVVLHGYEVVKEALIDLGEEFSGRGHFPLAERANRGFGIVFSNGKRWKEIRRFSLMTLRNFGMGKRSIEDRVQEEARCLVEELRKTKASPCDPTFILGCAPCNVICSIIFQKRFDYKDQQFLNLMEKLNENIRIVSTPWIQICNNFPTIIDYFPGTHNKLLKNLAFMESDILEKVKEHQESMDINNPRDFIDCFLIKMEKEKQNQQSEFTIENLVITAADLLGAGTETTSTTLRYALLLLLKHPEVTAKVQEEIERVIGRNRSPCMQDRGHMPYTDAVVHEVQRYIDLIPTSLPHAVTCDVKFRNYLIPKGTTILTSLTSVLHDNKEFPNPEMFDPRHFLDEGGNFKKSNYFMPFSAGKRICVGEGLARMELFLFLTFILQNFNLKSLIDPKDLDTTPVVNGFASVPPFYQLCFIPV
Assay: Cytochrome P450 isoform inhibition in human hepatic microsomes, S-mephenytoin (Example 18)
Type: in vitro ADME
Details: both sexes, human, pooled human hepatic microsomes, probe S-mephenytoin 50 μM; test article 1.0 μM
OBSERVED PROPERTY: inhibition at 30 min, 1 μM (%)

In [3]: df
Out[3]:
                                   compound  result_value
0  O=C(O)C(Oc1cccc(C(F)(F)F)c1)c1ccc(Cl)cc1 (single isomer, unassigned; (-)) [(−) halofenic acid]             5

* * *

Molecular target: UniProtKB P11509
Sequence (P11509 whole entry): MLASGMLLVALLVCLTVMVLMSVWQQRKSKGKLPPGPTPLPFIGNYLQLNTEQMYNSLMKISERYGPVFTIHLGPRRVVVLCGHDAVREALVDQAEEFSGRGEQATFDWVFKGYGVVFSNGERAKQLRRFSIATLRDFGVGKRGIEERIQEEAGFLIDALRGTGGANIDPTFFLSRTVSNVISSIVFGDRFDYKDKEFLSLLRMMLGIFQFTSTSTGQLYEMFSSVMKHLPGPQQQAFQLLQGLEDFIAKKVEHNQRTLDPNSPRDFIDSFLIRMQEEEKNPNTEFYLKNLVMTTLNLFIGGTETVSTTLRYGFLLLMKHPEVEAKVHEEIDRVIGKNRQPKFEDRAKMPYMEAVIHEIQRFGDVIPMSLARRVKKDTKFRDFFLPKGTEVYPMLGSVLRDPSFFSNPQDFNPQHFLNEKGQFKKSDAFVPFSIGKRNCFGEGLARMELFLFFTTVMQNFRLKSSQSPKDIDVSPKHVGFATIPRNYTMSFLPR
Experiment: in vitro
Conditions: both, microsomes
OBSERVED PROPERTY: inhibition at 20 min, 10 μM (%)

>>> df
                                   compound            observed_property  result_value
0  O=C(O)C(Oc1cccc(C(F)(F)F)c1)c1ccc(Cl)cc1 (single isomer, unassigned; (-)) [(−) halofenic acid]  inhibition at 20 min, 10 μM            -3

Origin of values: patent US20040039053A1
